This listing pairs binders with measured kon.
target: T1, recombinant human CD3 epsilon/delta heterodimer (human, UniProt P07766 23-126; P04234 22-105); assay: BLI (Octet), mAb 5 ug/mL on FAB2G sensor, hCD3 E/D 200-50 nM
T1 construct: Recombinant heterodimer used as analyte in Octet; also called hCD3 E/D; human CD3E/D
T1 sequence (P07766 23-126, stated change not applied, chain 1 of 2): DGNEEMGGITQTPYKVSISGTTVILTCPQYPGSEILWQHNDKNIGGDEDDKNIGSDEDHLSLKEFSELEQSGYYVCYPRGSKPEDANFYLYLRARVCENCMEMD
T1 sequence (P04234 22-105, stated change not applied, chain 2 of 2): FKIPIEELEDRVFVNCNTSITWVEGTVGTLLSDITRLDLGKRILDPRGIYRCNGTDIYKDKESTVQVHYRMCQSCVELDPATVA
Field: numeric (M⁻¹ s⁻¹). Do not append units.

[
  {
    "BINDER": "ABL-CD3-64 (antibody, V domains shown, mAb purified from hybridoma; chimeric AlivaMab IgG (human VH, CH1 and upper hinge; mouse middle hinge, CH2, CH3; human light chain)) VH: EVQVAESGGGLVKPGGSLRLSCAASGFTFSRYSMNWVRQAPGKGLEWVSSISSSGSYTYYADSVKGRFTISRDNAKNSLYLQMNSLRAEDTAVYYCVRERGKGAGMDVWGQGTTVTVSS VL: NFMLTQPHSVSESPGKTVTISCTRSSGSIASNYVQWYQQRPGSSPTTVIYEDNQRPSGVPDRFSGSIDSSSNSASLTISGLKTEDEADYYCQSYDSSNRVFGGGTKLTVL",
    "UNIT_STRING": "M⁻¹ s⁻¹",
    "EXPERIMENTAL_RESULT": 171000
  },
  {
    "BINDER": "ABL-CD3-74 (antibody, V domains shown, mAb purified from hybridoma; chimeric AlivaMab IgG (human VH, CH1 and upper hinge; mouse middle hinge, CH2, CH3; human light chain)) VH: EVQLVESGGGLVKPGGSLRLSCAASGFTFSSYSMKWVRQAPGKGLEWVSSISSSSSYIYYADSVKGRFTISRDNAKNSLYLQMNSLRAEDTAVYYCARDRGELTLWYWGQGTLVTVSS VL: SYELTQPPSVSVSPGQTARITCSGDALPKKYAYWYQQKSGQAPVLVIYEDSKRPSGIPERFSGSSSGTMATLTISGAQVEDEADYYCYSTDSSGNHWVFGGGTKLTVL",
    "UNIT_STRING": "M⁻¹ s⁻¹",
    "EXPERIMENTAL_RESULT": 467000
  }
]

Turning now to a further binder:
[Q] Name the recorded kon for ABL-CD3-76 (antibody, V domains shown, mAb purified from hybridoma; chimeric AlivaMab IgG (human VH, CH1 and upper hinge; mouse middle hinge, CH2, CH3; human light chain)) VH: EVQLVESGGGLVKPGGSLRLSCAASGFTFSNYYMNWVRQAPGKGLERVSSISSSSNYIYYADSVKGRFTISRDNAKNSLYLQMNSLRAEDTAVYYCARDRRELPLDYWGQGTVVTVSS VL: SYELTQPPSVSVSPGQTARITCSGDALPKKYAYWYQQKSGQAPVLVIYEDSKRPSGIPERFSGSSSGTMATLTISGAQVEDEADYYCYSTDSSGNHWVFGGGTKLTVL .
[A] 260000
